Conditions: in water, 313.15 K
metric: solubility (mole fraction)
Enter a number only.

Query block: Sample Cc1ccc(S(=O)[O-])cc1.[Na+] — what was its solubility (mole fraction)?
Result block: 0.0453

* * *

Conditions: in acetonitrile, 283.15 K
metric: solubility (mole fraction)
Enter a number only.

Query block: Sample Cc1ccc(S(=O)[O-])cc1.[Na+] — what was its solubility (mole fraction)?
Result block: 7.7e-05

* * *

Details: in DMF, 293.15 K
metric: solubility (mole fraction)
Enter a number only.

Query block: Sample Cc1ccc(S(=O)[O-])cc1.[Na+] — what was its solubility (mole fraction)?
Result block: 0.00365

* * *

Details: in methanol, 288.15 K
metric: solubility (mole fraction)
Enter a number only.

Query block: Sample Cc1ccc(S(=O)[O-])cc1.[Na+] — what was its solubility (mole fraction)?
Result block: 0.04

* * *

Settings: in n-butanol, 278.15 K
metric: solubility (mole fraction)
Enter a number only.

Query block: Sample Cc1ccc(S(=O)[O-])cc1.[Na+] — what was its solubility (mole fraction)?
Result block: 0.00032

* * *

Details: in acetonitrile, 313.15 K
metric: solubility (mole fraction)
Enter a number only.

Query block: Sample Cc1ccc(S(=O)[O-])cc1.[Na+] — what was its solubility (mole fraction)?
Result block: 0.00033

* * *

Conditions: in acetonitrile, 308.15 K
metric: solubility (mole fraction)
Enter a number only.

Query block: Sample Cc1ccc(S(=O)[O-])cc1.[Na+] — what was its solubility (mole fraction)?
Result block: 0.00027

* * *

Conditions: in acetonitrile, 278.15 K
metric: solubility (mole fraction)
Enter a number only.

Query block: Sample Cc1ccc(S(=O)[O-])cc1.[Na+] — what was its solubility (mole fraction)?
Result block: 5.8e-05

* * *

Details: in acetone, 313.15 K
metric: solubility (mole fraction)
Enter a number only.

Query block: Sample Cc1ccc(S(=O)[O-])cc1.[Na+] — what was its solubility (mole fraction)?
Result block: 0.0013

* * *

Details: in acetonitrile, 293.15 K
metric: solubility (mole fraction)
Enter a number only.

Query block: Sample Cc1ccc(S(=O)[O-])cc1.[Na+] — what was its solubility (mole fraction)?
Result block: 0.00013

* * *

Settings: in DMF, 313.15 K
metric: solubility (mole fraction)
Enter a number only.

Query block: Sample Cc1ccc(S(=O)[O-])cc1.[Na+] — what was its solubility (mole fraction)?
Result block: 0.0146

* * *

Conditions: in water, 288.15 K
metric: solubility (mole fraction)
Enter a number only.

Query block: Sample Cc1ccc(S(=O)[O-])cc1.[Na+] — what was its solubility (mole fraction)?
Result block: 0.0234

* * *

Settings: in acetone, 298.15 K
metric: solubility (mole fraction)
Enter a number only.

Query block: Sample Cc1ccc(S(=O)[O-])cc1.[Na+] — what was its solubility (mole fraction)?
Result block: 0.0008

* * *

Details: in methanol, 298.15 K
metric: solubility (mole fraction)
Enter a number only.

Query block: Sample Cc1ccc(S(=O)[O-])cc1.[Na+] — what was its solubility (mole fraction)?
Result block: 0.0665

* * *

Conditions: in acetone, 303.15 K
metric: solubility (mole fraction)
Enter a number only.

Query block: Sample Cc1ccc(S(=O)[O-])cc1.[Na+] — what was its solubility (mole fraction)?
Result block: 0.00094

* * *

Conditions: in methanol, 308.15 K
metric: solubility (mole fraction)

Query block: Sample Cc1ccc(S(=O)[O-])cc1.[Na+] — what was its solubility (mole fraction)?
Result block: 0.106
